What NC50 was measured for each of the following?
- SUBJECT_OF_TEST: SARS-CoV-2 spike on VSV-pseudotype SARS-CoV-2 (SARS-CoV-2, UniProt P0DTC2 14-1273)
- METHOD_DESCRIPTION: cell-based or functional assay
Lab book: enter the figure in µg/mL, no units written.

Any idea what NC50 was measured for variant 5-1 (Fc fusion) VHH: EVQLVESGGGLVQPGGSLRLSCAASGGTFSSIGMGWFRQAPGKEREFVAAISWDGGATAYADSVKGRFTISADNSKNTAYLQMNSLKPEDTAVYYCAKEDVGKPFDWGQGTLVTVSS ?
0.1

Any idea what NC50 was measured for variant 6-76 (Fc fusion) VHH: EVQLVESGGGLVQPGGSLRLSCAASGLAFDFDGMGWFRQAPGKEREGVAAINSGGSTYYADSVKGRFTISADNSKNTAYLQMNSLKPEDTAVYYCARFFRAHDYWGQGTLVTVSS ?
1.08

Any idea what NC50 was measured for variant 6-73 (Fc fusion) VHH: EVQLVESGGGLVQPGGSLRLSCAASGHTFSGYAMGWFRQAPGKEREFVAVITREGSTYYADSVKGRFTISADNSKNTAYLQMNSLKPEDTAVYYCARLGGEGFDYWGQGTLVTVSS ?
1.46

Any idea what NC50 was measured for variant 6-55 (Fc fusion) VHH: EVQLVESGGGLVQPGGSLRLSCAASGFTMSSSWMGWFRQAPGKEREFVARITSGGSTGYADSVKGRFTISADNSKNTAYLQMNSLKPEDTAVYYCASVDGYFDYWGQGTLVTVSS ?
0.21

Any idea what NC50 was measured for variant 6-78 (Fc fusion) VHH: EVQLVESGGGLVQPGGSLRLSCAASGRTYDAMGWFRQAPGKEREFVASVTSGGYTHYADSVKGRFTISADNSKNTAYLQMNSLKPEDTAVYYCAKFGRKIVGATELDYWGQGTLVTVSS ?
8.26

Any idea what NC50 was measured for variant 6-60 (Fc fusion) VHH: EVQLVESGGGLVQPGGSLRLSCAASGDTYGSYWMGWFRQAPGKEREFVATISQSGAATAYADSVKGRFTISADNSKNTAYLQMNSLKPEDTAVYYCAGLLRYSGTYYDAFDVWGQGTLVTVSS ?
0.15

Any idea what NC50 was measured for variant 6-85 (Fc fusion) VHH: EVQLVESGGGLVQPGGSLRLSCAASGGTFSVFAMGWFRQAPGKEREFVSAINWSGGSLLYADSVKGRFTISADNSKNTAYLQMNSLKPEDTAVYYCALFGDFDYWGQGTLVTVSS ?
0.84

Any idea what NC50 was measured for variant 5-34 (Fc fusion) VHH: EVQLVESGGGLVQPGGSLRLSCAASGRTFSRYIMGWFRQAPGKEREFVAAISWSGGDNTYYADSVKGRFTISADNSKNTAYLQMNSLKPEDTAVYYCAAYRIVVGGTSPGDWRWGQGTLVTVSS ?
0.54

Any idea what NC50 was measured for variant 6-63 (Fc fusion, also called VHH nanobody 6-63) VHH: EVQLVESGGGLVQPGGSLRLSCAASGQTFNMGWFRQAPGKEREFVAAIGSGGSTSYADSVKGRFTISADNSKNTAYLQMNSLKPEDTAVYYCWRLGNDYFDYWGQGTLVTVSS ?
0.06

Data provenance: patent US20210355194A1
